Where these numbers come from: patent US20170325459A1

# assay_summary: log P by HPLC (OECD Guideline 117), method [a] acidic range pH 2.7
# Assay type: physicochemical
# protocol_conditions: reversed-phase (RP) C18 HPLC column
measurement_kind: chromatographic logP

O=C(Nc1ccc2nc(-c3cncc(F)c3)sc2c1)c1cccc([S+]([O-])C(F)(F)F)c1 (stereo not drawn) ... 3.27
O=C(NCC(F)(F)F)c1ccc2nc(-c3cccnc3)sc2c1 ... 1.96
Cc1cccc(-c2ccc3nc(-c4cccnc4)sc3c2)c1 ... 4.27

A. Cc1cc(F)c(Nc2ccc3nc(-c4cccnc4)sc3c2)cc1[S+]([O-])CC(F)(F)F (stereo not drawn)
B. O=C(NCc1ccccn1)c1ccc2nc(-c3cccnc3)sc2c1
Select the item whose chromatographic logP value is smaller, choosing between A and B . Reply briefly: the label of your chosen item.
B
(B: 1.15, A: 2.85)

P. FC(F)(F)CNc1ccc2nc(-c3cccnc3)sc2c1
Q. Cc1cc(F)c(-c2ccc3nc(-c4cccnc4)sc3c2)cc1SCC(F)(F)F
R. c1ccc(Nc2ccc3nc(-c4cccnc4)sc3c2)nc1
Please list these compounds in decreasing order of chromatographic logP. Please, when replying, give the labels in the order that was requested.
Q, P, R

* * *

# assay_summary: log P by HPLC (OECD Guideline 117), method [a] acidic range pH 2.7
# Format: physicochemical
measurement_kind: logP[a]

CN(C)C(=O)c1ccc2nc(-c3cncc(F)c3)sc2c1 ... 1.9

A. Cc1nn(-c2ccc3nc(-c4cccnc4)sc3c2)c(=S)n1C
B. CC[S+]([O-])c1ccccc1Nc1ccc2nc(-c3cccnc3)sc2c1 (centres unmarked)
C. Fc1ccccc1-c1ccc2nc(-c3cccnc3)sc2c1
Arrange items by their logP[a] values in increasing order. Please, when replying, give the labels in the order that was requested.
A, B, C

* * *

# assay_summary: log P by HPLC (OECD Guideline 117), method [b] neutral range pH 7.8
# Type: physicochemical
measurement_kind: logP[b]

Worked examples follow.
Cn1cnn(-c2ccc3nc(-c4cccnc4)sc3c2)c1=S [compound 46] ... 1.49
Cc1cnn(-c2ccc3nc(-c4cccnc4)sc3c2)c1 [compound 45] ... 2.71
Fc1ccccc1-c1ccc2nc(-c3cccnc3)sc2c1 [compound 5] ... 3.78

P. Cn1c(SCC(F)(F)F)nn(-c2ccc3nc(-c4cccnc4)sc3c2)c1=O [compound 54]
Q. Cc1nn(-c2ccc3nc(-c4cccnc4)sc3c2)c(=S)n1C [compound 49]
R. CCSc1ccccc1Nc1ccc2nc(-c3cccnc3)sc2c1 [compound 22]
Please list these compounds in decreasing order of logP[b]. Please, when replying, give the labels in the order that was requested.
R, P, Q
(R: 4.44, P: 2.91, Q: 1.58)

* * *

# assay_summary: log P by HPLC (OECD Guideline 117), method [b] neutral range pH 7.8
# Assay type: physicochemical
# protocol_conditions: reversed-phase (RP) C18 HPLC column
measurement_kind: chromatographic logP

P. FC(F)(F)c1ccn(-c2ccc3nc(-c4cccnc4)sc3c2)n1
Q. Cn1c(=O)cnn(-c2ccc3nc(-c4cccnc4)sc3c2)c1=O
Select the item whose chromatographic logP value is smaller, choosing between P and Q . Reply briefly: the label of your chosen item.
Q
(Q: 1.84, P: 3.46)

a. Cc1cc(C)c([S+]([O-])CC(F)(F)F)cc1Nc1ccc2nc(-c3cccnc3)sc2c1 (stereo not drawn)
b. Cc1cc(C)c(SCC(F)(F)F)cc1Nc1ccc2nc(-c3cccnc3)sc2c1
c. c1cncc(-c2nc3ccc(-n4ccnc4)cc3s2)c1
Please list these compounds in decreasing order of chromatographic logP. Please, when replying, give the labels in the order that was requested.
b, a, c
(b: 4.51, a: 3.07, c: 1.64)

P. FC(F)(F)CNc1ccc2nc(-c3cccnc3)sc2c1
Q. Cc1cc(F)c(-c2ccc3nc(-c4cccnc4)sc3c2)cc1SCC(F)(F)F
Select the item whose chromatographic logP value is smaller, choosing between P and Q . Reply briefly: the label of your chosen item.
P
